System: MDA-MB-435 melanoma
experiment: NCI-60 one-dose screen, 48 h
run parameters: 10 µM unless noted
This is part of a sample that, as a whole, favours compounds with a hit. Of some 83,000 tested, about 20% had one in any assay. Activity calls are given as the source filed them. How the source made its calls: active means growth percent below 10; inactive means the rest.
Respond with a class label; see True (active), False (inactive)

See these solved cases before continuing.
INSERT INTO assay_data (compound, answer_label) VALUES
  ('CCN1CCN(S(=O)(=O)c2oc(-c3ccc(Cl)cc3)nc2C#N)CC1', 'False'),
  ('Nc1c(C(=O)Nc2ccc(C(F)(F)F)cc2)sc2nc(-c3cnccn3)cc(-c3cccs3)c12', 'False'),
  ('COc1ccc(N/N=C/c2c(-c3ccc(S(C)(=O)=O)cc3)nc3ccccn23)cc1', 'False'),
  ('COc1ccc(-c2nc3ccc(-c4nnc(SCC(=O)Nc5ccc(C(=O)/C=C/c6ccccc6)cc5)o4)cc3[nH]2)cc1OC', 'False'),
  ('CN(C)CCCOc1c2ccccc2nc2c1oc1ccc(Cl)cc12', 'True');

Req: Identify the outcome logged in this assay for the compound shown: C=CCSc1ccc2c(c1)C(N1CCNCC1)=Nc1ccccc1O2
Resp: False

Req: Identify the outcome logged in this assay for the compound shown: Nc1ncc(-c2ccc3ncnc(N4CCc5cc(F)c(Cl)cc54)c3c2)cc1CO
Resp: True

Req: Identify the outcome logged in this assay for the compound shown: CCOC(=O)c1c(Nc2ccccc2)nn2c(N)c(C#N)c(-c3ccc(F)cc3)nc12
Resp: False

Req: Identify the outcome logged in this assay for the compound shown: CS(=O)(=O)c1ccc(-c2nc3ccccn3c2/C=N/Nc2nc(-c3ccc(Br)cc3)cs2)cc1
Resp: False

Req: Identify the outcome logged in this assay for the compound shown: COc1ccc(COc2ccc(/C=C3/C(=O)Nc4cc(Cl)ccc43)cc2)cc1
Resp: False

Req: Identify the outcome logged in this assay for the compound shown: O=C(Oc1ccc2ccc(=O)oc2c1)c1ccc(Cl)cc1
Resp: False

Req: Identify the outcome logged in this assay for the compound shown: O=C(N/N=C/c1ccco1)c1[nH]c2ccc(Br)cc2c1-c1ccccc1
Resp: True

Req: Identify the outcome logged in this assay for the compound shown: COc1cc(/C=C/C(=O)c2ccc(C(F)(F)F)cc2)ccc1Oc1nc(NCCO)nc(N2CCOCC2)n1
Resp: False

Req: Identify the outcome logged in this assay for the compound shown: COc1ccc(/C=N/Nc2ccnc3cc(Cl)ccc23)cc1Cl
Resp: True

Req: Identify the outcome logged in this assay for the compound shown: COC(=O)C1CCCN(S(=O)(=O)/N=C2\NC(=O)NC2=C(Cl)Cl)C1 (configuration not stated)
Resp: False

Req: Identify the outcome logged in this assay for the compound shown: N#Cc1c(-c2ccc(Cl)cc2)nc(SCc2ccccc2)nc1N1CCNCC1
Resp: False

Req: Identify the outcome logged in this assay for the compound shown: CC(O)C(NC(=O)C1CCCN1C(=O)CNC(=O)C1CC(=O)NCC(=O)NC(Cc2c[nH]c3ccccc23)C(=O)NC(Cc2ccc(O)cc2)C(=O)NCC(=O)NC(CO)C(=O)NC(CCC(N)=O)C(=O)NC(Cc2c[nH]c3ccccc23)C(=O)N1)C(=O)NCC(=O)NC(CCC(N)=O)C(=O)NC(CCCNC(=N)N)C(=O)NC(CC(=O)O)C(=O)O (configuration not stated)
Resp: False
